# maps each entry to its phosphorylation enrichment
- Target: Jak2 (UniProt O60674)
- Sequence (O60674 whole entry, looked up): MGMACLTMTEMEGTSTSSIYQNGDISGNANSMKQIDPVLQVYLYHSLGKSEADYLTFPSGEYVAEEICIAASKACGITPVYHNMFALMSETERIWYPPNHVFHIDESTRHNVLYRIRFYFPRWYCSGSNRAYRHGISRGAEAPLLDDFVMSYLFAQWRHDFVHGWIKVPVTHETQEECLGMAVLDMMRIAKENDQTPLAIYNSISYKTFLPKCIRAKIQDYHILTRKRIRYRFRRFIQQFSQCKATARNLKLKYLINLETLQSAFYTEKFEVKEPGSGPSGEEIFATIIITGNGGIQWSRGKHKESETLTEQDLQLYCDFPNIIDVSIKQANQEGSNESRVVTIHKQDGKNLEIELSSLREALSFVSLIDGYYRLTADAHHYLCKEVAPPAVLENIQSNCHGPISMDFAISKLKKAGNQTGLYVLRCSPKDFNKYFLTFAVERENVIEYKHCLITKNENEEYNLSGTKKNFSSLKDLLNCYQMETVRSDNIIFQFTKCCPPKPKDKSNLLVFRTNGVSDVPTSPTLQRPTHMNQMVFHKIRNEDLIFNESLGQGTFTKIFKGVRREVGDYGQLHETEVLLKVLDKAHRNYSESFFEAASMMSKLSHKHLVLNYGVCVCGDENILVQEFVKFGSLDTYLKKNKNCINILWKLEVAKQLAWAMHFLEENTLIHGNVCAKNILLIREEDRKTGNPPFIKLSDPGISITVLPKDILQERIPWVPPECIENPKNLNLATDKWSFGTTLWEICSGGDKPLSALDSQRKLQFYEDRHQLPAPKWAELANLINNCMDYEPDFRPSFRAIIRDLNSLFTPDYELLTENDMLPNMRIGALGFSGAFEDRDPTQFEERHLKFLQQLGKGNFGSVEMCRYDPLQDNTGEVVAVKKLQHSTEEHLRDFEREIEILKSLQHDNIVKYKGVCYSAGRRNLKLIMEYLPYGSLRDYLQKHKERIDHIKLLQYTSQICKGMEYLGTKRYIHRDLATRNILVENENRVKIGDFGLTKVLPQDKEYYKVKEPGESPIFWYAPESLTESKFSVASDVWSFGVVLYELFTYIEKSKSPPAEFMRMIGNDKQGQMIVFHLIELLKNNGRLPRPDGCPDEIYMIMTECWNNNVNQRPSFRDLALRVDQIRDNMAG
- Method description: phosphorylation enrichment, bacterial display (enrichment ratio); higher = better substrate or ligand; peptides without Tyr show the background;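 further: 11-residue human phosphosite peptides and single-mutation variants displayed on the E. coli surface, counted by deep sequencing, each peptide's frequency after selection divided by its frequency in the unselected input library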;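 further: frequency after pTyr selection over input frequency; kinase dosed for 20-30% of maximal phosphorylation in three min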
Measurement name: phosphorylation enrichment

• SKKVRYVVSKA [BARD1_Y156] = 0.482
• QLRPGYFPIPV [BAG3_Y93_I94F] = 0.981
• IQKWEYVPLGT [FAH_Y244_P249T] = 1.23
• MGSYNYLGFPR [SPTLC2_Y178_A182P] = 3.81
• ETSHNYHKFDS [MATR3_Y243] = 0.662
• GHLYAYDWISI [BEST1_Y227] = 0.923
• TGNGYYFRVFS [MYBPC3_Y1136_I1131T] = 1.41
• VNFDFYTVNLG [GFPT1_Y367_D366Y_YF] = 1.23
• KLMTEYKKRKQ [ARFGEF3_Y2029] = 0.653
• GVTLLYFGRDN [ADGRD1_Y85_Y89D_YF] = 0.937
• RFLRGYHQDAY [HLA-A_Y137_R138H] = 1.28
• MENFIYESMRY [CYP19A1_Y361] = 0.839
• SFMVRYNQPRV [GRIN2D_Y736_YF] = 0.685
• TNFSLYLRSLE [MTM1_Y71_R69S_YF] = 1.36
